Molecular target: Hordeum HPPD (SEQ ID NO:2) (Hordeum vulgare, UniProt O48604, A164G/R146V/R147D/R148G)
Construct: His-tag (N); made in house; host or cells: E. coli BL21 (DE3)
Sequence (O48604 whole entry R146V/R147D/R148G/A164G): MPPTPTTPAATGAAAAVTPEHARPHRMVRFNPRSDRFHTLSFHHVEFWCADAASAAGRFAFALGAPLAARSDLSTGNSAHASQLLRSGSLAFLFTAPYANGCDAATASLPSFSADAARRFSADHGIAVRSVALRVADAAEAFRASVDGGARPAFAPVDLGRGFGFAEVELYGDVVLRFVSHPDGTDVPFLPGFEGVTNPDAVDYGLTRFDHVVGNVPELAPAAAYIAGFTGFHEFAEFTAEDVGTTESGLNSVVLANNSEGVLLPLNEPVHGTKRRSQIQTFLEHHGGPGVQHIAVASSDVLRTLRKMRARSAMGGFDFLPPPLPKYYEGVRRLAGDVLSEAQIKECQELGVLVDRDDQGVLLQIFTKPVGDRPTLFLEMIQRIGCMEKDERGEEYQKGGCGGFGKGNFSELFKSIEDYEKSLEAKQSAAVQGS
Experiment: HPPD activity assay
Assay type: biochemical
Details: HPPD enzyme Hordeum
READOUT: TI normalized to Arabidopsis HPPD
Give bare numbers.

Use these answered entries as a reference point.
* Cc1c(C(=O)c2cnn(C)c2O)ccc(S(C)(=O)=O)c1C1=NOCC1 | 3.7
* CS(=O)(=O)c1ccc(C(=O)C2C(=O)CCCC2=O)c(Cl)c1COCC(F)(F)F | 0.1
* CS(=O)(=O)c1ccc(C(=O)C2C(=O)CCCC2=O)c([N+](=O)[O-])c1 | 0.9

Task: Tell me measured TI normalized to Arabidopsis HPPD for COCCOCc1nc(C(F)(F)F)ccc1C(=O)C1=C(O)C2CCC(C2)C1=O (stereo not shown) please.
Result: 0.2

----------
Molecular target: Hordeum HPPD L320H (Hordeum vulgare, UniProt O48604, A164G/L320H/R146V/R147D/R148G)
Construct: His-tag (N); made in house; host or cells: E. coli BL21 (DE3)
Sequence (O48604 whole entry R146V/R147D/R148G/A164G/L320H): as the sequence (O48604 whole entry R146V/R147D/R148G/A164G) above, with L320H counted along it
Assay: HPPD activity assay, mutant
Format: biochemical
Conditions: Hordeum HPPD variant L320H; normalized on wild-type
READOUT: Normalized tolerance index (TI)
One number for each entry.

Use these answered entries as a reference point.
- CS(=O)(=O)c1ccc(C(=O)C2C(=O)CCCC2=O)c(Cl)c1COCC(F)(F)F: 5.1
- CS(=O)(=O)c1ccc(C(=O)C2C(=O)CCCC2=O)c([N+](=O)[O-])c1: 1.2
- COCCOCc1nc(C(F)(F)F)ccc1C(=O)C1=C(O)C2CCC(C2)C1=O (stereo not shown): 3

Task: Consider the molecule "Cc1c(C(=O)c2cnn(C)c2O)ccc(S(C)(=O)=O)c1C1=NOCC1" tested on Hordeum HPPD L320H (Hordeum vulgare, UniProt O48604, A164G/L320H/R146V/R147D/R148G); state its Normalized tolerance index (TI).
Result: 5.4

----------
Molecular target: Hordeum HPPD L334E (Hordeum vulgare, UniProt O48604, A164G/L334E/R146V/R147D/R148G)
Construct: His-tag (N); made in house; host or cells: E. coli BL21 (DE3)
Sequence (O48604 whole entry R146V/R147D/R148G/A164G/L334E): as the sequence (O48604 whole entry R146V/R147D/R148G/A164G) above, with L334E counted along it
Assay: HPPD activity assay, mutant
Type: biochemical
Conditions: Hordeum HPPD variant L334E; normalized on wild-type
Hi there, I'd appreciate the recorded Normalized tolerance index (TI) for every entry that follows.
Answers are plain numbers.

* Cc1c(C(=O)c2cnn(C)c2O)ccc(S(C)(=O)=O)c1C1=NOCC1 | 3.6
* CS(=O)(=O)c1ccc(C(=O)C2C(=O)CCCC2=O)c([N+](=O)[O-])c1 | 4

Quick batch: Normalized tolerance index (TI) for everything below.
1. CS(=O)(=O)c1ccc(C(=O)C2C(=O)CCCC2=O)c(Cl)c1COCC(F)(F)F
2. COCCOCc1nc(C(F)(F)F)ccc1C(=O)C1=C(O)C2CCC(C2)C1=O (stereo not shown)

Result:
1: 2.1; 2: 1.2

----------
Target: Hordeum HPPD F404L (Hordeum vulgare, UniProt O48604, A164G/F404L/R146V/R147D/R148G)
Construct: subcloned into a modified pET24D (Novagen) expression vector resulting in N-terminally His-tagged expression constructs; His tag (N); made in house; host or cells: E. coli BL21 (DE3)
Assay: HPPD activity assay, mutant
Format: biochemical
Conditions: Hordeum HPPD variant F404L; normalized on wild-type
Hi there, I'd appreciate the recorded Normalized tolerance index (TI) for every entry that follows.
Answers are plain numbers.

Use these answered entries as a reference point.
• CS(=O)(=O)c1ccc(C(=O)C2C(=O)CCCC2=O)c(Cl)c1COCC(F)(F)F = 1.2
• COCCOCc1nc(C(F)(F)F)ccc1C(=O)C1=C(O)C2CCC(C2)C1=O (stereo not shown) = 0.4
• Cc1c(C(=O)c2cnn(C)c2O)ccc(S(C)(=O)=O)c1C1=NOCC1 = 3

Task: Tell me measured Normalized tolerance index (TI) for "CS(=O)(=O)c1ccc(C(=O)C2C(=O)CCCC2=O)c([N+](=O)[O-])c1" please.
Result: 0.9

----------
Target: Arabidopsis HPPD M335H, P336G (Arabidopsis thaliana, UniProt P93836, M335H/P336G)
Construct: His6 (N); made in house; host or cells: E. coli BL21 (DE3)
Sequence (P93836 whole entry M335H/P336G): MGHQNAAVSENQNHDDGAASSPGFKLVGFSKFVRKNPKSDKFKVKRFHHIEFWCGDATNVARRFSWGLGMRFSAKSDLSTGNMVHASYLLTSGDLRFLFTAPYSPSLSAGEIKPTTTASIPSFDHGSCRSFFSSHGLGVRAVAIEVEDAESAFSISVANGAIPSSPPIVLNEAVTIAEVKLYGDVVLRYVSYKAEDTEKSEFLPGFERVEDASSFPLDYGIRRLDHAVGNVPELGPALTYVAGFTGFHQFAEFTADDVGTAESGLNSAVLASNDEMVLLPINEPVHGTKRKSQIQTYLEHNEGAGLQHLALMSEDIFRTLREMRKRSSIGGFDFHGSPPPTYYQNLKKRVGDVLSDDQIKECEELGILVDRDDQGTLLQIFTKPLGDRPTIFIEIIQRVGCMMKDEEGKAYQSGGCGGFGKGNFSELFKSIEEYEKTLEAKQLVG
Format: biochemical
Settings: Arabidopsis HPPD variant M335H, normalized on wild-type
Hi there, I'd appreciate the recorded Normalized tolerance index (TI) for every entry that follows.
One number for each entry.

• COCCOCc1nc(C(F)(F)F)ccc1C(=O)C1=C(O)C2CCC(C2)C1=O (stereo not shown) [Inhibitor 3] = 0.3
• CS(=O)(=O)c1ccc(C(=O)C2C(=O)CCCC2=O)c(Cl)c1COCC(F)(F)F [Inhibitor 4] = 0.2
• CS(=O)(=O)c1ccc(C(=O)C2C(=O)CCCC2=O)c([N+](=O)[O-])c1 [Inhibitor 2] = 0.1

Kindly review the next compound as well.
Task: Tell me measured Normalized tolerance index (TI) for Cc1c(C(=O)c2cnn(C)c2O)ccc(S(C)(=O)=O)c1C1=NOCC1 [Inhibitor 1] please.
Result: 5

----------
Target: Hordeum HPPD R309K (Hordeum vulgare, UniProt O48604, A164G/R146V/R147D/R148G/R309K)
Construct: subcloned into a modified pET24D (Novagen) expression vector resulting in N-terminally His-tagged expression constructs; His tag (N); made in house; host or cells: E. coli BL21 (DE3)
Sequence (O48604 whole entry R146V/R147D/R148G/A164G/R309K): as the sequence (O48604 whole entry R146V/R147D/R148G/A164G) above, with R309K counted along it
Test: HPPD activity assay, mutant
Format: biochemical
Details: Hordeum HPPD variant R309K; normalized on wild-type
Hi there, I'd appreciate the recorded Normalized tolerance index (TI) for every entry that follows.
One number for each entry.

Use these answered entries as a reference point.
* CS(=O)(=O)c1ccc(C(=O)C2C(=O)CCCC2=O)c([N+](=O)[O-])c1 [Inhibitor 2] | 1.3
* Cc1c(C(=O)c2cnn(C)c2O)ccc(S(C)(=O)=O)c1C1=NOCC1 [Inhibitor 1] | 1.5
* CS(=O)(=O)c1ccc(C(=O)C2C(=O)CCCC2=O)c(Cl)c1COCC(F)(F)F [Inhibitor 4] | 4.6

Kindly review the next molecule as well.
Task: Tell me measured Normalized tolerance index (TI) for COCCOCc1nc(C(F)(F)F)ccc1C(=O)C1=C(O)C2CCC(C2)C1=O (stereo not shown) [Inhibitor 3] please.
Result: 2.5

----------
Hi there, I'd appreciate the recorded Ki for every entry that follows.
Molecular target: Hordeum HPPD (SEQ ID NO:2) (Hordeum vulgare, UniProt O48604, A164G/R146V/R147D/R148G)
Construct: His-tag (N)
Assay: HPPD activity assay
One number for each entry, in µM.

- Cc1c(C(=O)c2cnn(C)c2O)ccc(S(C)(=O)=O)c1C1=NOCC1: 0.0079

Kindly review the next compound as well.
Task: Tell me measured Ki for "CS(=O)(=O)c1ccc(C(=O)C2C(=O)CCCC2=O)c([N+](=O)[O-])c1" please.
Result: 0.073

----------
Hi there, I'd appreciate the recorded Normalized tolerance index (TI) for every entry that follows.
Molecular target: Arabidopsis HPPD F381L (Arabidopsis thaliana, UniProt P93836, F381L)
Construct: His6 (N); made in house; host or cells: E. coli BL21 (DE3)
Sequence (P93836 whole entry F381L): as the sequence (P93836 whole entry M335H/P336G) above, with H335M, G336P, F381L counted along it
Assay type: biochemical
Conditions: Arabidopsis HPPD variant F381L; normalized on wild-type
Procedure: The activity assay for HPPD is based on the analysis of homogentisic acid by reversed phase HPLC. […] The reaction is allowed to proceed for 45 min at room temperature. […] 5 μl of the cleared sample is analyzed on an UPLC HSS T3 column (particle size 1.8 μm, dimensions 2, 1×50 mm; Waters) by isocratic elution using 90% 20 mM NaH2PO4 pH 2.2, 10% methanol (v/v). HGA is detected electrochemically at 750 mV (mode: DC; polarity: positive) and quantified by integrating peak areas (Empower software; Waters). […]
Give bare numbers.

Use these answered entries as a reference point.
- CS(=O)(=O)c1ccc(C(=O)C2C(=O)CCCC2=O)c([N+](=O)[O-])c1: 0.1
- COCCOCc1nc(C(F)(F)F)ccc1C(=O)C1=C(O)C2CCC(C2)C1=O (stereo not shown): 0.1
- Cc1c(C(=O)c2cnn(C)c2O)ccc(S(C)(=O)=O)c1C1=NOCC1: 11

Kindly review the next compound as well.
Task: Tell me measured Normalized tolerance index (TI) for "CS(=O)(=O)c1ccc(C(=O)C2C(=O)CCCC2=O)c(Cl)c1COCC(F)(F)F" please.
Result: 0.1

----------
Biological target: Hordeum HPPD L320H, P321A (Hordeum vulgare, UniProt O48604, L320H/P321A)
Construct: His-tag (N); made in house; host or cells: E. coli BL21 (DE3)
Sequence (O48604 whole entry R146V/R147D/R148G/A164G/L320H/P321A): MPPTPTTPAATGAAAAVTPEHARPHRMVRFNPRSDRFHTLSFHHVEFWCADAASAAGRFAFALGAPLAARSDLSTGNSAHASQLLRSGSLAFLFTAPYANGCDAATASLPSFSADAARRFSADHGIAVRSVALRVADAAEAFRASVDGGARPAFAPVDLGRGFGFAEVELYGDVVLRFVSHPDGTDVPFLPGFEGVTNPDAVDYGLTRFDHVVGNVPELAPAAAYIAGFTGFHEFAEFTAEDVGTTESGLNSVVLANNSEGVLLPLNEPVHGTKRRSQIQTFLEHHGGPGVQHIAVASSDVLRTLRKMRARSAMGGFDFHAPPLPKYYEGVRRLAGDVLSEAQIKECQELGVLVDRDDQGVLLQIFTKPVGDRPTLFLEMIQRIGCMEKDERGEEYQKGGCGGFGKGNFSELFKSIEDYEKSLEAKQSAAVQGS
Test: HPPD activity assay, mutant
Type: biochemical
Conditions: Hordeum HPPD variant L320H, normalized on wild-type
Hi there, I'd appreciate the recorded Normalized tolerance index (TI) for every entry that follows.
Numbers only.

Use these answered entries as a reference point.
- Cc1c(C(=O)c2cnn(C)c2O)ccc(S(C)(=O)=O)c1C1=NOCC1: 5.1
- CS(=O)(=O)c1ccc(C(=O)C2C(=O)CCCC2=O)c([N+](=O)[O-])c1: 3.5
- CS(=O)(=O)c1ccc(C(=O)C2C(=O)CCCC2=O)c(Cl)c1COCC(F)(F)F: 4.3

Kindly review the next compound as well.
Task: Tell me measured Normalized tolerance index (TI) for COCCOCc1nc(C(F)(F)F)ccc1C(=O)C1=C(O)C2CCC(C2)C1=O (stereo not shown) please.
Result: 2.5
